# Test system: E. coli NCTC 10418
# Type: cell-based, Escherichia coli
Where a SMILES comes first, the peptide text is derived from it.
READOUT: MBC

COMPOUND: CC[C@H](C)[C@H](NC(=O)[C@H](C)NC(=O)[C@H](CCC(=O)O)NC(=O)[C@H](CCC(N)=O)NC(=O)[C@@H](NC(=O)[C@H](CC(C)C)NC(=O)[C@H](C)NC(=O)[C@H](CC(C)C)NC(=O)[C@H](C)NC(=O)[C@H](CC(C)C)NC(=O)[C@@H](N)Cc1ccccc1)[C@@H](C)CC)C(=O)N[C@@H](C)C(=O)N[C@@H](CCCCN)C(=O)N[C@@H](CC(C)C)C(=O)N[C@@H](CCCCN)C(N)=O [QUB-1641] (H-FLALALIQEAIAKLK-NH2)
MEASURED_RESULT: > 128 µM
